Tested on: NB14;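 note: growth inhibition of NB14 cells measured with a cell viability assay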
assay-name: cells
Assay type: functional, cell-based, Homo sapiens
condition-info: Homo sapiens, NB14
Description: SANGER: Inhibition of human NB14 cell growth in a cell viability assay.
Field: IC50. Provide a value for each of the molecules that follow.
Numbers only, in nM.

Consider the following illustrative entries.
INSERT INTO measurements (molecule, readout_label, experimental_result) VALUES
  ('Nc1ccccc1NC(=O)c1ccc(CNC(=O)OCc2cccnc2)cc1 [ENTINOSTAT]', 'IC50', 726),
  ('CC1(C)CCC(c2ccc(Cl)cc2)=C(CN2CCN(c3ccc(C(=O)NS(=O)(=O)c4ccc(N[C@H](CCN5CCOCC5)CSc5ccccc5)c(S(=O)(=O)C(F)(F)F)c4)cc3)CC2)C1 [NAVITOCLAX]', 'IC50', 1140);

Find the recorded IC50 belonging to NC(=O)Nc1cc(-c2cccc(F)c2)sc1C(=O)N[C@H]1CCCNC1 [AZD-7762] and report it.
61.4

---

Tested on: SW900;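 note: IC50 is the concentration that inhibits SW900 cell growth, measured by a cell viability assay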
assay-name: cells
Type: functional, cell-based
condition-info: Homo sapiens
Description: SANGER: Inhibition of human SW900 cell growth in a cell viability assay.
pIC50: −log10 of the molar value.
Field: pIC50. Provide a value for each of the compounds that follow.

INSERT INTO measurements (compound_structure, experimental_result) VALUES
  ('O=C1NC(=O)c2c1c(-c1ccccc1Cl)cc1[nH]c3ccc(O)cc3c21', '< 5.70');

Hi! What's the reported pIC50 for `CN(C)CCOc1ccc(-c2nc(-c3ccncc3)c(-c3ccc4c(c3)CC/C4=N\O)[nH]2)cc1` on SW900?
< 5.30

---

System: SW684
assay-name: cells
Assay type: functional, cell-based, Homo sapiens
condition-info: Homo sapiens, SW684; read-out: IC50
Description: SANGER: Inhibition of human SW684 cell growth in a cell viability assay.
pIC50: −log10 of the molar value.
Field: pIC50. Provide a value for each of the molecules that follow.

INSERT INTO measurements (molecule, experimental_result) VALUES
  ('NC1(c2ccc(-c3nc4ccn5c(=O)[nH]nc5c4cc3-c3ccccc3)cc2)CCC1 [MK-2206]', '< 5.40'),
  ('O=S(=O)(O)c1ccc2cc(/N=N/c3cc(S(=O)(=O)O)c4cccnc4c3O)ccc2c1', '< 4.80'),
  ('O=C1NC(=O)c2c1c(-c1ccccc1Cl)cc1[nH]c3ccc(O)cc3c21', '< 5.70'),
  ('Nc1ccccc1NC(=O)c1ccc(CNC(=O)OCc2cccnc2)cc1 [ENTINOSTAT]', '< 5.30'),
  ('CCCCCCCCCCCC1=C(O)C(=O)C=C(O)C1=O [EMBELIN]', '< 4.49');

For each entry beneath this line, provide reported pIC50.
1. Cc1cc(N2CCOCC2)cc2[nH]c(-c3c(NC[C@@H](O)c4cccc(Cl)c4)cc[nH]c3=O)nc12
2. CS(=O)(=O)N1CCN(Cc2cc3nc(-c4cccc5[nH]ncc45)nc(N4CCOCC4)c3s2)CC1 [PICTILISIB]
3. NC(=O)Nc1cc(-c2cccc(F)c2)sc1C(=O)N[C@H]1CCCNC1 [AZD-7762]
4. CN(C)CCOc1ccc(-c2nc(-c3ccncc3)c(-c3ccc4c(c3)CC/C4=N\O)[nH]2)cc1 [SB590885]

1: < 5.29; 2: < 5.40; 3: < 5.70; 4: < 5.30

For each entry beneath this line, provide reported pIC50.
1. CC(C)C[C@H](NC(=O)[C@H](Cc1ccccc1)NC(=O)c1cnccn1)B(O)O [BORTEZOMIB]
2. Cc1ccc(C(=O)Nc2ccc(CN3CCN(C)CC3)c(C(F)(F)F)c2)cc1C#Cc1cnc2cccnn12 [PONATINIB]

1: 9.09; 2: < 6.29
